Read-out: Monocyte Chemoattractant Protein-1 (MCP1), CCL2 (gene 6347)
Assay: BSK_4H_MCP1: BioMAP Diversity Plus: 4H Assay for Monocyte Chemoattractant Protein-1 (MCP1) Biomarker Activity (AID 2283018)
Conditions: primary human endothelial cells (HUVEC); actives raise or lower the signal
Calls of active or inactive are those of the source. The calls were made as follows: active = hit-call score of the fitted dose curve at least 0.9, where 1 is the maximum; inactive = score below 0.9.
reportedMetric: AC50

Look over these answered cases.
compound: OCC(CO)(CBr)CBr
reportedMetric: AC50
testValue: inactive
--
compound: C=COC(=O)C(C)(C)CCCCCC
reportedMetric: AC50
testValue: 20 µM (active)
--
compound: O=C1OC2(c3ccccc31)c1cc(I)c(O)c(I)c1Oc1c2cc(I)c(O)c1I
reportedMetric: AC50
testValue: 4.8 µM (active)
--
compound: O=C1c2ccc(O)c(O)c2C(=O)c2c(O)ccc(O)c21
reportedMetric: AC50
testValue: inactive

State, in one line, measured AC50 of "Oc1cc2ccccc2cc1O"
inactive

State, in one line, measured AC50 of "O=C(CCCN1CCC(O)(c2ccc(Cl)cc2)CC1)c1ccc(F)cc1"
inactive

State, in one line, measured AC50 of "CCCCCCCCCCCC"
inactive
